assay: Mydriasis: effect on the size of the pupil; parameters: species or system male Crl:COBS-CD(SD)BR rats; settings: in vivo, po; Rat, percent of maximum pupil diameter obtained by atropine, 30-120 min
Where a name gives a salt, the structure may show the parent alone.

# compound, ED50 / mg/kg
records = [
    ("Cl.O=C1Nc2ccccc2N(C(=O)CCN2CCCC2)c2ccccc21", 3.61),
    ("O=C1Nc2ccccc2N(C(=O)CN2CCCCC2)c2ccccc21", 5.82),
    ("CN1C(=O)c2ccccc2N(C(=O)CN2CCCC2)c2ccccc21 [E, hydrochloride]", 9.84),
    ("O=C1Nc2ccccc2N(C(=O)CN2CCCC2)c2ccccc21", 9.91),
    ("Cl.O=C1Nc2ccccc2N(C(=O)CCN2CCCCC2)c2ccccc21", 3.84),
]

###

test system: gastric secretion (free and total hydrochloric acid in the gastric fluid); assay: Inhibition of gastric fluid secretion (liberation of acid), pylorus ligature, method of Shay et al.; format: in vivo, male Crl:COBS (WI) BR Albino rats; settings: Rat, i.d., 4 hours after pylorus ligature
Where a name gives a salt, the structure may show the parent alone.
readout.kind: log10 ED50 (log10 of the value in mg/kg)

# compound, readout.kind, reported.value
records = [
    ("Cl.O=C1Nc2ccccc2N(C(=O)CCN2CCCC2)c2ccccc21 [A]", "log10 ED50", -0.70),
    ("CN1C(=O)c2ccccc2N(C(=O)CN2CCCC2)c2ccccc21 [E, hydrochloride]", "log10 ED50", 1.26),
    ("Cl.O=C1Nc2ccccc2N(C(=O)CCN2CCCCC2)c2ccccc21 [C]", "log10 ED50", 0.20),
    ("O=C1Nc2ccccc2N(C(=O)CN2CCCC2)c2ccccc21 [D]", "log10 ED50", 0.91),
    ("O=C1Nc2ccccc2N(C(=O)CN2CCCCC2)c2ccccc21 [F]", "log10 ED50", 0.79),
    ("CN1C(=O)c2ccccc2N(C(=O)CCN2CCCC2)c2ccccc21 [B, hydrochloride]", "log10 ED50", -0.14),
]

###

experiment: Acute toxicity; settings: in vivo, po; Mouse
Where a name gives a salt, the structure may show the parent alone.

# compound, reading.unit, LD50
records = [
    ("O=C1Nc2ccccc2N(C(=O)CN2CCCCC2)c2ccccc21", "mg/kg", 600),
    ("O=C1Nc2ccccc2N(C(=O)CN2CCCC2)c2ccccc21", "mg/kg", 860),
    ("CN1C(=O)c2ccccc2N(C(=O)CCN2CCCC2)c2ccccc21 [B, hydrochloride]", "mg/kg", 574),
    ("Cl.O=C1Nc2ccccc2N(C(=O)CCN2CCCC2)c2ccccc21", "mg/kg", 609),
    ("CN1C(=O)c2ccccc2N(C(=O)CN2CCCC2)c2ccccc21 [E, hydrochloride]", "mg/kg", 816),
    ("Cl.O=C1Nc2ccccc2N(C(=O)CCN2CCCCC2)c2ccccc21", "mg/kg", 813),
]

Data origin: patent US4377576A
